test_target: human CD20 (human) (UniProt P11836)
Sequence (P11836 whole entry): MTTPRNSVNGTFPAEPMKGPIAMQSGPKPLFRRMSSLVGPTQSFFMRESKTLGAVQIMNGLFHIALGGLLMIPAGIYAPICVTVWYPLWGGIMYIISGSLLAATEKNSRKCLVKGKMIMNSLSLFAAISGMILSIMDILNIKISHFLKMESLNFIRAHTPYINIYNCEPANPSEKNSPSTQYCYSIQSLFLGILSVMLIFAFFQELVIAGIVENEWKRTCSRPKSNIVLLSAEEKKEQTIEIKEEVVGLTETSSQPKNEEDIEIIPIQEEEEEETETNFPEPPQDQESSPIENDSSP
test_name: Scatchard analysis, iodinated RITUXAN with unlabeled RITUXAN on CHO clone 2H3 cells in suspension (n=3)
measurement_kind: Kd

Asked: Endpoint output: Kd of RITUXAN® (rituximab) (antibody) . Value?
Given back: 8.57 nM

====

test_target: human CD20 (human)
test_name: Scatchard analysis, iodinated RITUXAN with unlabeled RITUXAN on adherent CHO clone 4H10 cells expressing human CD20 (n=3)
measurement_kind: Kd
# output: numeric value plus its unit

Asked: Endpoint output: Kd of RITUXAN® (rituximab) (antibody) . Value?
Given back: 5.5 nM
